// provenance: ChEMBL document CHEMBL2331405

# Measurement target: UniProt Q9UNQ0
# Sequence (Q9UNQ0 whole entry): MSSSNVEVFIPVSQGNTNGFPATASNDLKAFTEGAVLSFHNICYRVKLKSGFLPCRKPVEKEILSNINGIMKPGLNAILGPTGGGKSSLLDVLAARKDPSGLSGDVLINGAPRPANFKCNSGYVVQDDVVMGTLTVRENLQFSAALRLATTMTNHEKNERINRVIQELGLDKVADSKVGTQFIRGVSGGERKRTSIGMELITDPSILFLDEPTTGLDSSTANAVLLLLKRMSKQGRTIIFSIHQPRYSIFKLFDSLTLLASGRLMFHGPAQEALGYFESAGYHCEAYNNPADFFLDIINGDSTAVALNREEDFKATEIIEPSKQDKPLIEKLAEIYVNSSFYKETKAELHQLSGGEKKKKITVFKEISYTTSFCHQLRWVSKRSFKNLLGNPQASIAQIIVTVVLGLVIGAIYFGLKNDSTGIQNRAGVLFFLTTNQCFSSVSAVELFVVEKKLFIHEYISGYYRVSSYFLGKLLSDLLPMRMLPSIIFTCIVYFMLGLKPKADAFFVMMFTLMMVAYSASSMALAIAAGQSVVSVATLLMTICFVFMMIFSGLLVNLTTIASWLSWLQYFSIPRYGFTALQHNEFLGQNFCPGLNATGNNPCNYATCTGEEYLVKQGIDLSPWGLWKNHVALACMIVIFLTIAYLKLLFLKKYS
# Method summary: Inhibition of ABCG2 in human MCF7/Topo cells after 2 hrs by Hoechst 33342 microplate assay
Measured endpoint: IC50

// known answers, use as guide
Ask: Look up IC50 of COC(=O)c1ccc(-c2ccc(CN3CCc4ccccc4C3)cc2)cc1NC(=O)c1ccc2ccccc2n1 and report it.
Reply: 1460 nM

Ask: Look up IC50 of COC(=O)c1ccc(C(=O)Nc2ccc(CCN3CCc4cc(OC)c(OC)cc4C3)cc2)cc1NC(=O)c1ccc2ccccc2n1 and report it.
Reply: 65 nM

Ask: Look up IC50 of COCCOCCOCCOc1cc2c(cc1OC)CN(Cc1ccc(-c3ccc(C(=O)OC)c(NC(=O)c4ccc5ccccc5n4)c3)cc1)CC2 and report it.
Reply: 1030 nM

Ask: Look up IC50 of COCCOCCOCCOc1cc2c(cc1OC)CN(Cc1ccc(-c3ccc(C(=O)OC)c(NC(=O)c4ccc5ncccc5c4)c3)cc1)CC2 and report it.
Reply: 237 nM

Further cases:
Ask: Look up IC50 of COCCOCCOCCOc1cc2c(cc1OCCOCCOCCOC)CN(CCc1ccc(-c3ccc(C(=O)OC)c(NC(=O)c4ccc5ccccc5n4)c3)cc1)CC2 and report it.
Reply: 544 nM

Ask: Look up IC50 of COC(=O)c1ccc(-c2ccc(CN3CCc4cc(OC)c(OC)cc4C3)cc2)cc1NC(=O)c1ccc2ccccc2n1 and report it.
Reply: 943 nM

Ask: Look up IC50 of COCCOCCOCCOc1cc2c(cc1OC)CCN(CCc1ccc(-c3ccc(C(=O)OC)c(NC(=O)c4ccc5ccccc5n4)c3)cc1)C2 and report it.
Reply: 760 nM
